Target: Dipeptidyl peptidase 1 (Homo sapiens, UniProt P53634)
Assay: Inhibition of CatL-activated recombinant human C-terminal His10-tagged cathepsin C (25 to 463 residues) expressed in mouse myeloma cells using Gly-Phe-AFC as substrate preincubated for 3 hrs followed by substrate addition and measured after 60 mins
Assay type: cell-free
pIC50: −log10 of the molar value.
measured_metric: pIC50

Worked set:
[
  {
    "compound": "C=CC(=O)Nc1cccc(Oc2nc(Nc3ccc(N4CCN(C)CC4)cc3OC)ccc2N(C)C)c1",
    "pIC50": 5.82
  },
  {
    "compound": "C=CC(=O)Nc1cc(Oc2nc(Nc3ccc(N4CCN(C)CC4)cc3)ccc2N2CCCCC2)ccc1C",
    "pIC50": 7.75
  },
  {
    "compound": "C=CC(=O)Nc1cccc(Oc2nc(Nc3ccc(N4CCN(C)CC4)cc3OC)ccc2C(F)(F)F)c1",
    "pIC50": 5.79
  },
  {
    "compound": "C=CC(=O)Nc1cccc(Oc2nc(Nc3ccc(N4CCN(C)CC4)cc3OC)ccc2N2CCCCCC2)c1",
    "pIC50": 6.57
  },
  {
    "compound": "C=CC(=O)Nc1cc(Oc2nc(Nc3ccc(N4CCN(C)CC4)nc3OC)ccc2N2CCCCC2)ccc1C",
    "pIC50": 7.54
  }
]

a = C=CC(=O)Nc1cccc(Oc2cccc(Nc3ccc(N4CCN(C)CC4)cc3OC)n2)c1
b = C=CC(=O)Nc1cc(Oc2nc(Nc3ccc(N4CCC(N(C)C)CC4)cc3OC)ccc2N2CCCCC2)ccc1C
Prompt: a or b : whose pIC50 is greater? Output the label that corresponds to your choice.
Response: b
(b: 7.81, a: 6.11)

P = C=CC(=O)Nc1cccc(Oc2nc(Nc3ccc(N4CCN(C)CC4)cc3OC)ccc2N2CCCC2)c1
Q = C=CC(=O)Nc1cccc(Oc2nc(Nc3ccc(N4CCN(C)CC4)cc3)ccc2Cl)c1
R = C=CC(=O)Nc1cc(Oc2nc(Nc3ccc(N4CCN(C)CC4)cc3OC)ccc2N2CCCC(O)C2)ccc1C (racemic)
S = C=CC(=O)Nc1cc(Oc2nc(Nc3ccc(N4CCN(C)CC4)cc3OC)ccc2N2CCCCC2)ccc1C(F)(F)F
Prompt: // smallest pIC50 at index 0, largest at the end Give the labels in the order requested.
Response: Q, P, R, S
(Q: 6.32, P: 6.76, R: 7.47, S: 8.64)
